Values compiled from patent US20150337037A1.

Target: T1, human chemokine receptor CCR6 (human, UniProt P51684 1-374)
T1 construct: whole, on cells; gene was synthesized (codon-optimized); a C-terminal tag may be present on the expressed protein; also called CCR6 human; human CCR6
T1 sequence (looked up): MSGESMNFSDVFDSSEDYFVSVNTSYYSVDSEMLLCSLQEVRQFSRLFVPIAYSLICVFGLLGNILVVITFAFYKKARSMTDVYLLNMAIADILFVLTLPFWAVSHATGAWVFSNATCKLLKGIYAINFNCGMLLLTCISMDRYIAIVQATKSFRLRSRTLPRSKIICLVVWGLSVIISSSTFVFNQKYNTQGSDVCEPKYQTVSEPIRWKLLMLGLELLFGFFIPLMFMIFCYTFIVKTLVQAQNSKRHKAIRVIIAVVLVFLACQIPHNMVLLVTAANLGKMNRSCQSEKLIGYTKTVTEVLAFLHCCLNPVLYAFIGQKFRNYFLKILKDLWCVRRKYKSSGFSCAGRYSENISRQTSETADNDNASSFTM
Experiment: flow cytometry on cells expressing the target, IgG1 titration, anti-human Fc-PE
Recorded measurements of EC50, one per entry
Property measured: EC50 (nM)

Binder	Units of measure	Relation symbol	Recorded number
MSM-R604 IgG1 (antibody, V domains shown, Fully human IgG1) VH: EVQLLESGGGLVQPGGSLRLSCAASGFTFTNYSMHWVRQAPGKGLEWVSLISPYSSSTYYADSMKGRFTISRDNSKNTLYLQMNSLRAEDTAVYYCARGRYYGAYSYPGFDYWGQGTLVTVSS VL: EIVLTQSPGTLSLSPGERATLSCRASQSVSSSYLAWYQQKPGQAPRLLIYGASSRATGIPDRFSGSGSGTDFTLTISRLEPEDFAVYYCQQSAKNPLTFGQGTKVEIKR	nM	=	2.9
MSM-R610 IgG1 (antibody, V domains shown, Fully human IgG1; also called MSM R610.46) VH: EVQLLESGGGLVQPGGSLRLSCAASGFTFTGSSMSWVRQAPGKGLEWVSLISSRGSYTYYADSVKGRFTISRDNSKNTLYLQMNSLRAEDTAVYYCARSYAYQYRGLDYWGQGTLVTVSS VL: EIVLTQSPGTLSLSPGERATLSCRASQSVSSSYLAWYQQKPGQAPRLLIYGASSRATGIPDRFSGSGSGTDFTLTISRLEPEDFAVYYCQQNRTSPITFGQGTKVEIKR	nM	>	100
MSM-R617 IgG1 (antibody, V domains shown, Fully human IgG1; also called MSMR617.46) VH: EVQLLESGGGLVQPGGSLRLSCAASGFTFSGYAMHWVRQAPGKGLEWVSSIGSRRGFTSYADSVKGRFTISRDNSKNTLYLQMNSLRAEDTAVYYCARSYAYQYRGLDYWGQGTLVTVSS VL: EIVLTQSPGTLSLSPGERATLSCRASQSVSSSYLAWYQQKPGQAPRLLIYGASSRATGIPDRFSGSGSGTDFTLTISRLEPEDFAVYYCQQRSSVTFGQGTKVEIKR	nM	=	1.5
MSM-R607 IgG1 (antibody, V domains shown, Fully human IgG1) VH: EVQLLESGGGLVQPGGSLRLSCAASGFTFSSYYMHWVRQAPGKGLEWVSLIAPANSDTYYADSVKGRFTISRDNSKNTLYLQMNSLRAEDTAVYYCARSSYTRHSSKRGMDYWGQGTLVTVSS VL: EIVLTQSPGTLSLSPGERATLSCRASQSVSSSYLAWYQQKPGQAPRLLIYGASSRATGIPDRFSGSGSGTDFTLTISRLEPEDFAVYYCQQAAYSPITFGQGTKVEIKR	nM	=	1.2
